Assay Text: ATG_MRE_CIS: Attagene CIS-FACTORIAL HepG2 Assay for human Metal Responsive Element (MRE) (AID 2282954)
Condition Details: HepG2 MRE cis-reporter transcription, Attagene multiplex; actives raise or lower the signal
Activity calls are given as the source filed them. Rule for the calls: active = hit-call score of the fitted dose curve at least 0.9, where 1 is the maximum; inactive = score below 0.9.
Outcomes: Y for active, N for inactive

>  <Entry Smiles>
C#C[C@]1(O)CC[C@H]2[C@@H]3CCC4=CC(=O)CC[C@]4(C)[C@H]3CC[C@@]21C

>  <Cat>
N

$$$$
>  <Entry Smiles>
C[N+](C)(C)Cc1ccccc1

>  <Cat>
N

$$$$
>  <Entry Smiles>
Nc1nc(N)nc(Cl)n1

>  <Cat>
N

$$$$
>  <Entry Smiles>
C=C(C)[C@@H]1CC=C(C=O)CC1

>  <Cat>
Y

$$$$
>  <Entry Smiles>
FC(F)OCC(F)(F)C(F)(F)F

>  <Cat>
N

$$$$
>  <Entry Smiles>
C=CCOC(N)=O

>  <Cat>
N

$$$$
>  <Entry Smiles>
COP(=S)(OC)Oc1cc(Cl)c(I)cc1Cl

>  <Cat>
Y

$$$$
